Measured values drawn from patent US6110888A for this set.

Exercise: state measured MIC for each of the molecules provided.
Tested on: Aspergillus niger
Assay: MIC, A. niger (Table 2)
Format: cell-based
Conditions: A. niger strain 16404, fungi, read-out: Anti-Microbial Activity MIC, A. niger
Procedure: Anti-Microbial Activity of Examples 1-6 (MIC in μg/mL) Antimicrobial activity was evaluated to determine minimal inhibitory concentration ("MIC") and Minimal Bactericidal Concentration ("MBC"). The specific biological testing protocol is published R. Kang et al., "J. Agric. Food Chem.," vol. 40 pp. 2328-2330 (1994), the entirety of which is herein incorporated by reference.
Answer in µg/mL, number only, no unit symbol.

Look up MIC with Aspergillus niger for this molecule: `CCCc1cc(C)c(O)cc1C(C)C`
62.5

Look up MIC with Aspergillus niger for this molecule: `CCCc1c(C)ccc(C(C)C)c1O`
125

Look up MIC with Aspergillus niger for this molecule: `CCCc1c(C(C)C)ccc(C)c1O`
125

Look up MIC with Aspergillus niger for this molecule: `CCCc1cc(C(C)C)c(O)cc1C`
125
